Just for reference, ChEMBL document CHEMBL1123969 is where these values come from.

- Species: Cavia porcellus
- protocol_text: Positive inotropic activity in spontaneously beating guinea pig atria
- Type: functional, organism-based
recorded_endpoint: EC50

The following compounds have reported results that may help.
| compound | EC50 |
| --- | --- |
| C=C[C@@]1(C)CC(=O)[C@]2(O)C3(C)C(C(OC(=O)CN4CCOCC4)C(O)[C@@]2(C)O1)C(C)(C)CC[C@@H]3O.Cl (some centres not stated) | 0.5 µg/mL |
| C=C[C@@]1(C)CC(=O)[C@]2(O)C3(C)C(C(O)C(OC(=O)CCCCN4CCCCC4)[C@@]2(C)O1)C(C)(C)CC[C@@H]3O.Cl (some centres not stated) | 30 µg/mL |
| C=C[C@@]1(C)CC(=O)[C@]2(O)C3(C)C(C(O)C(OC(=O)CCN4C(=O)c5ccccc5C4=O)[C@@]2(C)O1)C(C)(C)CC[C@@H]3O (some centres not stated) | > 30 µg/mL |
| C=C[C@@]1(C)CC(=O)[C@]2(O)C3(C)C(C(OC(=O)C(C)N4CCOCC4)C(O)[C@@]2(C)O1)C(C)(C)CC[C@@H]3O.Cl (some centres not stated) | > 30 µg/mL |
| C=C[C@@]1(C)CC(=O)[C@]2(O)C3(C)C(C(O)C(OC(=O)CN4CCN(C)CC4)[C@@]2(C)O1)C(C)(C)CC[C@@H]3O.Cl (some centres not stated) | > 30 µg/mL |

What measured EC50 goes with C=C[C@@]1(C)CC(=O)[C@]2(O)C3(C)C(C(O)C(OC(=O)CN4CCCC(C)C4)[C@@]2(C)O1)C(C)(C)CC[C@@H]3O.Cl (some centres not stated) ?
> 30 µg/mL

GET /values?readout=EC50&item= C=C[C@@]1(C)CC(=O)[C@]2(O)C3(C)C(C(O)C(OC(=O)C(C)N4CCCCC4)[C@@]2(C)O1)C(C)(C)CC[C@@H]3O (some centres not stated)
> 30 µg/mL
